biological target: GST-Bcl-2 (Homo sapiens, UniProt P10415); test: TR-FRET binding assay, GST-Bcl-2 with F-Bak peptide probe; settings: TR-FRET Binding Affinity
Sequence (P10415 whole entry): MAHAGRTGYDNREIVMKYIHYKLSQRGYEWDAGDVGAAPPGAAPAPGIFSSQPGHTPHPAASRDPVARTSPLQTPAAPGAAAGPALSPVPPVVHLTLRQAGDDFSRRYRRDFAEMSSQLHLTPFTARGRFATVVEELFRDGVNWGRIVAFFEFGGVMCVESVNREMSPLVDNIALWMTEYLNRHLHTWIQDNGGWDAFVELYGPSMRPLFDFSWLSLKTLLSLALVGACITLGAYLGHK
Consider the following compounds; for each one, report its Ki.

Sample answers from the record:
{"columns": ["compound", "recorded_endpoint", "meas_value"],
 "data": [
  ["CC1(C)CCC(CN2CCN(c3ccc(C(=O)NS(=O)(=O)c4cnc(OCC5(F)CCC(C#N)CC5)c(Cl)c4)c(Oc4cccc5[nH]ncc45)c3)CC2)=C(c2ccc(Cl)cc2)C1 (stereo not drawn) [Example 549]", "Ki", "< 0.01 nM"],
  ["CC1(C)CCC(CN2CCN(c3ccc(C(=O)NS(=O)(=O)c4cnc(NCC5CCC(C)(O)CC5)c([N+](=O)[O-])c4)c(Oc4cccc5[nH]ncc45)c3)CC2)=C(c2ccc(Cl)cc2)C1 (stereo not drawn) [Example 555]", "Ki", "< 0.01 nM"]
]}

*Q* If you can, please state the reported Ki value of CC1(C)CCC(CN2CCN(c3ccc(C(=O)NS(=O)(=O)c4ccc(NCC5CCOCC5)c([N+](=O)[O-])c4)c(Oc4cccc5[nH]nnc45)c3)CC2)=C(c2ccc(Cl)cc2)C1 [Example 523] .
*A* < 0.01 nM

---

Consider the following compounds; for each one, report its Ki.
target: GST-Bcl-2 (Homo sapiens); assay: TR-FRET binding assay, GST-Bcl-2 with F-Bak peptide probe; settings: TR-FRET Binding Affinity, GST-Bcl-2, F-Bak peptide probe
Respond with a number, then the unit of measure.

Sample answers from the record:
{"columns": ["compound", "system_tested", "recorded_endpoint", "meas_value"],
 "data": [
  ["COC1CCC(Nc2ccc(S(=O)(=O)NC(=O)c3ccc(N4CCN(CC5=C(c6ccc(Cl)cc6)CC(C)(C)CC5)CC4)cc3Oc3ccc4[nH]ccc4c3)cc2[N+](=O)[O-])CC1 (stereo not drawn)", "GST-Bcl-2 (Homo sapiens)", "Ki", "1.7 nM"],
  ["COc1ccc(C2=C(CN3CCN(c4ccc(C(=O)NS(=O)(=O)c5ccc(NCCCN6CCCC6)c([N+](=O)[O-])c5)c(Oc5cccc6[nH]ccc56)c4)CC3)CCC(C)(C)C2)cc1", "GST-Bcl-2 (Homo sapiens)", "Ki", "1.23 nM"]
]}

Continue with the compound presented below.
*Q* If you can, please state the reported Ki value of `CN1CCC(COc2ccc(S(=O)(=O)NC(=O)c3ccc(N4CCN(CC5=C(c6ccc(Cl)cc6)CC(C)(C)CC5)CC4)cc3Oc3ccc4[nH]ccc4c3)cc2[N+](=O)[O-])CC1` .
*A* 0.036 nM
